- Test system: SF-539
- assayText: NCI tumour cell line growth inhibition, 48 h
Active and inactive are the calls of the source. No stated cut-off is given here; in the data, active = GI50 up to about 1.1 µM and inactive = higher.
valueType: GI50

Completed entries (count: 3):
molecule: Cc1ccc(S(=O)(=O)N/N=C(\c2nc3ccc(Cl)cc3nc2O)C(O)c2cccc([N+](=O)[O-])c2)cc1 (stereo not given)
valueType: GI50
result: > 100 µM (inactive)
--
molecule: CCOC(=O)C1=C(Nc2cccc3ccccc23)OCC1=O
valueType: GI50
result: > 100 µM (inactive)
--
molecule: O=C(NN1C(=O)C(Cl)C1c1cccc(O)c1)c1ccccc1O (stereo not given)
valueType: GI50
result: > 100 µM (inactive)

Input: Notebook: pull reported GI50 for SF-539, entry Cc1ccc(C2(N3CCOCC3)OC(C)(C)c3cccc4cccc2c34)cc1 (stereo not given)
Output: 17.9 µM (inactive)

Input: Same lookup for CC1(C)C(CCO)CC1n1cc(I)c(=O)[nH]c1=O (stereo not given) , please.
Output: > 100 µM (inactive)

Attribution: ChEMBL document CHEMBL1201862
